biological target: T1, recombinant human VEGF165 (Sino biological) (human, UniProt P15692-4 27-191); experiment: Octet red96E BLI, VEGF165 amine-coupled on AR2G sensor, antibody as analyte, 30 C
T1 construct: Sino Biological VEGF165 was used in the Octet assay
T1 sequence (P15692 other isoform, or with tags, fused parts or gaps limits assumed): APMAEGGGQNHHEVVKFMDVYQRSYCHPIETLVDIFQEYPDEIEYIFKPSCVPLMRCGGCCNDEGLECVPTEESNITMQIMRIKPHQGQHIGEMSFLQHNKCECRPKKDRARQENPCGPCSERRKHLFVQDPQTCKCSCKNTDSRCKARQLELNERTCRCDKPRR
observation-type: Kd
// return the numeric value with its unit appended

Please report the recorded Kd for Lu007 (SEQ ID NO 33, SEQ ID NO 34) (antibody, V domains shown, Tested as a purified whole antibody, detected with anti-hIgG-Fc; also called variant ranibizumab; variant Lucentis) VH: EVQLVESGGGLVQPGGSLRLSCAASGYDFTHYGMNWIRQAPGKGLEWVGWINTYTGEPTYAADFKRRFTFSLDTSKSTVYLQMNSLRAEDTAVYYCAKYPHYYGTSHWYFDVWGQGTLVTVSS VL: DIQLTQSPSSLSASVGDRVTITCSASQDISNYLNWYQQKPGKAPKVLIYFTSSLHSGVPSRFSGSGSGTDFTLTISSLQPEDFATYYCQQYSTVPWTFGQGTKVEIKR .
0.0122 nM
